Tested on: HEK-293T
Experiment: Multiplex assay against HEK293T
Format: toxicity, cell-based
Conditions: human, 12 h, 10 µM, compound concentration 10 uM, replicate 1
The molecules listed here are annotated with their Population Mitotic Cells (%).
I only need the number, in %, no unit after it.

Entry Cl.Oc1ccc2c3c1O[C@H]1c4[nH]c5c(c4C[C@@]4(O)[C@@H](C2)N(CC2CC2)CC[C@]314)C[C@@]1(O)[C@H]2Cc3ccc(O)c4c3[C@@]1(CCN2CC1CC1)[C@H]5O4 , Population Mitotic Cells (%) reported as 59

---

System: HEK-293T
Experiment: Multiplex assay against HEK293T
Assay type: toxicity, cell-based
Settings: human, 24 h, 10 µM, compound concentration 10 uM, replicate 2
The molecules listed here are annotated with their Population Hoechst High Intensity Objects (%).
I only need the number, in %, no unit after it.

Entry CCN1CCN(c2ccc(Nc3cc(N(C)C(=O)Nc4c(Cl)c(OC)cc(OC)c4Cl)ncn3)cc2)CC1 [INFIGRATINIB] , Population Hoechst High Intensity Objects (%) reported as 4

Entry O=C(Nc1ccc(-c2ccnc(Nc3ccc(N4CCOCC4)cc3)n2)cc1)[C@@H]1CCCN1 , Population Hoechst High Intensity Objects (%) reported as 4

Entry O=C1N/C(=N/c2ccccc2F)S/C1=C\c1ccc(C(=O)O)cc1 , Population Hoechst High Intensity Objects (%) reported as 4
